# experiment.summary: qHTS assay to identify small molecule antagonists of the estrogen receptor alpha (ER-alpha) signaling pathway using the BG1 cell line in the presence of 0.1 nM 17-beta-estradiol - cell viability counter screen (AID 1259241); note: nearly all actives have a fitted effect of over 40% in size
# condition.set: VM7Luc4E2 (BG1) viability, CellTiter-Fluor protease, 22 h, 0.1 nM estradiol agonist added; series mostly up to 92.4 µM
Inconclusive results are not listed. Activity calls are given as the source filed them. Calls come from the whole dose curve; as a rule, active = well fitted cell-killing curve with a large enough effect in the repeat runs; inconclusive = weak or mixed curves, or effect the other way; inactive = flat fitted curve, though single readings scatter.
experimental.endpoint: activity change, negative = cytotoxicity

compound	reading
CN1CCC(=C2c3ccccc3C=Cc3ccccc32)CC1	inactive
CN(C)CC[C@@H](c1ccc(Br)cc1)c1ccccn1	inactive
O=C(O)Cc1sc(-c2ccccc2)nc1-c1ccc(Cl)cc1	inactive
CC(Cc1cccc(C(F)(F)F)c1)NCCOC(=O)c1ccccc1 (stereo not given)	inactive
O=C(NS(=O)(=O)/C=C/c1cccs1)c1ccc(F)cc1Br	inactive

Q: Entry C=CC[N+]1([C@H]2C[C@H]3[C@@H]4CC[C@H]5C[C@H](OC(C)=O)[C@@H](N6CCCCC6)C[C@]5(C)[C@H]4CC[C@]3(C)[C@H]2OC(=O)CC)CCCCC1 has what activity change, negative = cytotoxicity?
Ans: inactive

Q: I have this compound here, CC(C)CCCCCCOC(=O)c1ccc(C(=O)OCCCCCCC(C)C)c(C(=O)OCCCCCCC(C)C)c1 , and I need its recorded activity change, negative = cytotoxicity.
Ans: inactive

Q: Which measured activity change, negative = cytotoxicity value corresponds to COc1ccc2[nH]c(S(=O)Cc3ncc(C)c(OC)c3C)nc2n1 (stereo not given) ?
Ans: inactive

Q: Return reported activity change, negative = cytotoxicity; argument: N#Cc1c(F)cccc1F
Ans: inactive

Values were extracted from PubChem BioAssay (Tox21).
